Target: kinase protein levels in MCF-7 cells (Homo sapiens, UniProt A0A0B4J2F0)
Construct: endogenous in cells; host or cells: MCF-7
Sequence (A0A0B4J2F0 1-54): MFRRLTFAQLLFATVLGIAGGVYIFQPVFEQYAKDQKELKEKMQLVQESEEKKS
Experiment: TMT-labeled quantitative proteomics
Format: cell-based
Conditions: protein PIGBOS1; MCF7; 1 µM; set1.1
Experimental readout: log2FC (compound/DMSO)
// no unit string in output, number only

Compound	log2FC (compound/DMSO)
Cc1ncsc1-c1ccc(CNC(=O)[C@@H]2C[C@@H](O)CN2C(=O)[C@@H](NC(=O)CCOCCOCCOCCN2CCN(c3cc(Nc4cc(C5CC5)[nH]n4)nc(Nc4ccc(CC#N)cc4)n3)CC2)C(C)(C)C)cc1 [4-a]	0.1046
Cc1ncsc1-c1ccc(CNC(=O)[C@@H]2C[C@@H](O)CN2C(=O)[C@@H](NC(=O)CCOCCOCCOCCOCCN2CCN(c3ccc(Nc4ncc(Cl)c(Nc5ccccc5C(N)=O)n4)cc3)CC2)C(C)(C)C)cc1 [6-b]	-0.04609
Cc1ncsc1-c1ccc(CNC(=O)[C@@H]2C[C@@H](O)CN2C(=O)[C@@H](NCCOCCOCCOCCOCCC(=O)N2CCN(c3ccc(Nc4ncc(Cl)c(Nc5ccccc5C(N)=O)n4)cc3)CC2)C(C)(C)C)cc1 [6-c]	-0.01736

Next item in the queue.
// log2FC (compound/DMSO) lookup, compound = Cc1ncsc1-c1ccc(CNC(=O)[C@@H]2C[C@@H](O)CN2C(=O)[C@@H](NC(=O)CCOCCOCCNC(=O)c2cc(Nc3cc(C4CC4)[nH]n3)nc(Nc3ccc(CC#N)cc3)n2)C(C)(C)C)cc1 [5-a] , result: 0.05527
